Test system: HT-29
Assay: Cytotoxicity against human HT-29 cells
Format: functional
Conditions: read-out: ED50 (the source's name)
Listed below: EC50 values for each entry.
Your answer is read as µg/mL, so omit the unit and give the number.

C=C1CC[C@@H]2O[C@@]2(C)CC[C@H]2[C@H]1C(=O)O[C@@]2(/C=C/C=C(C)C)CO = 5.33
C=C1CC[C@@H]2O[C@@]2(C)CC[C@H](/C(=C\CC2OC2(C)C)COC(C)=O)[C@H]1C(=O)OC (some centres not stated) [XENITACIN] = 1.12
C=C1CC[C@@H]2O[C@@]2(C)CC[C@@H]2/C(=C\CC3OC3(C)C)COC(=O)[C@@H]12 (some centres not stated) = 7.77

Exercise: Give reported EC50 value for C=C1CC/C=C(\C)CC[C@@H]2/C(=C\C=C\C(C)(C)O)[C@@H](OC)O[C@H](OC)[C@@H]12 [XENIBECIN]
Solution: 12.5

Exercise: Give reported EC50 value for C=C1CC[C@@H]2/C(=C\C=C\C(C)(C)O)COC(=O)[C@H]2C(=C)CCC1OO (some centres not stated)
Solution: 8.31

Exercise: Give reported EC50 value for C=C1CC/C=C(\C)CC[C@@H]2/C(=C\CC3OC3(C)C)COC(=O)[C@@H]12 (some centres not stated)
Solution: 21.1

Exercise: Give reported EC50 value for `C=C1CC/C=C(\C)CC[C@@H]2/C(=C\C=C\C(C)(C)O)CO[C@H](O)[C@@H]12`
Solution: 12.9
